Data origin: patent US12195427B2

# System under test: MASP-2 CCP2-SP (Homo sapiens (Human), UniProt O00187)
# Sequence (O00187 445-686): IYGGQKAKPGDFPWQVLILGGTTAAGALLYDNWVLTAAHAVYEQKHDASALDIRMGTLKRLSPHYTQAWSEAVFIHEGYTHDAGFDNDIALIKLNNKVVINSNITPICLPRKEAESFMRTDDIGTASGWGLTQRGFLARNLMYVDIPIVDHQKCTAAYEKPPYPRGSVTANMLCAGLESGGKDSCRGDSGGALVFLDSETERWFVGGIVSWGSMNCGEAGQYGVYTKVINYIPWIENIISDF
# Sequence (O00187 364-432 partner): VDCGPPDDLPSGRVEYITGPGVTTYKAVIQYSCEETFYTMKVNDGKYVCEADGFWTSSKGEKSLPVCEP
# Experimental protocol: MASP-2 co-crystallization, X-ray crystallography and structure analysis (H-bonds, van der Waals contacts)
# Parameters: unit not given beside the values
# Assay conditions: Table A5-2 pharmacophore distance, S3/S4 region
# Description: This example illustrates the preparation of recombinant MASP-2 protein, based on UniProt O00187, human mannan-binding lectin serine protease 2. Expression constructs for human MASP-2 CCP2-SP and CCP2-SP-6HIS were generated for recombinant expression in E. coli cells. […]
Where a name gives a salt, the structure may show the parent alone.
Readout type: d(O2,H3)
Answers are plain numbers.

Previously resolved entries follow.
Incoming: Quote MASP-2 CCP2-SP (Homo sapiens (Human), UniProt O00187) d(O2,H3) for entry Cc1nc(N)ccc1CNC(=O)[C@H](C)NC(=O)[C@H]1C[C@@H](c2ccccc2)CCN1 [compound 1253, Dihydrochloride] .
Outgoing: 2.04

Incoming: Quote MASP-2 CCP2-SP (Homo sapiens (Human), UniProt O00187) d(O2,H3) for entry C[C@H](NC(=O)[C@H]1C[C@H](Cc2ccccc2)CN1)C(=O)NCc1cnc2[nH]cc(Cl)c2c1 [compound 1334] .
Outgoing: 2.99

Incoming: Quote MASP-2 CCP2-SP (Homo sapiens (Human), UniProt O00187) d(O2,H3) for entry N=C(N)c1ccc(CNC(=O)[C@@H]2CCN2C(=O)[C@H](NCC(=O)O)C2Cc3ccccc3C2)cc1 [compound 1129] .
Outgoing: 2.83

Now for another entry.
Incoming: Quote MASP-2 CCP2-SP (Homo sapiens (Human), UniProt O00187) d(O2,H3) for entry Cc1nc(N)ccc1CNC(=O)[C@H](C)NC(=O)[C@H]1C[C@@H](c2ccccc2)CCN1CCC(=O)O [compound 1411, Trifluoroacetate salt] .
Outgoing: 4.13

###

# System under test: MASP-2 CCP2-SP (Homo sapiens (Human))
# Experimental protocol: MASP-2 co-crystallization, X-ray crystallography and structure analysis (H-bonds, van der Waals contacts)
# Assay conditions: Table A4-1; element CA2
Counter-ions that a name gives are not always drawn.
Provide the recorded Ligand-pharmacophore element distance, pharmacophore element CA2 for the entries that follow.
Numbers only.

Incoming: Look up and report measured Ligand-pharmacophore element distance, pharmacophore element CA2 for this entry: CC(NC(=O)C(CCc1ccccc1)NCCCc1ccc(O)cc1)C(=O)NCc1ccc(C(=N)N)cc1.Cl.Cl (stereo not drawn) [1145_A]
Outgoing: 0.41

Incoming: Look up and report measured Ligand-pharmacophore element distance, pharmacophore element CA2 for this entry: C[C@H](NC(=O)[C@H]1C[C@@H](c2ccccc2)CCN1)C(=O)NCc1cc(Cl)ccc1O.Cl [1078_15]
Outgoing: 0.65

Incoming: Look up and report measured Ligand-pharmacophore element distance, pharmacophore element CA2 for this entry: Cc1cc(Cl)cc(CNC(=O)[C@H](C)NC(=O)[C@H]2C[C@H](Cc3ccccc3)CN2)c1O [compound 1307]
Outgoing: 0.17

Incoming: Look up and report measured Ligand-pharmacophore element distance, pharmacophore element CA2 for this entry: O=c1oc(-c2ccccc2[N+](=O)[O-])nc2ccccc12 [compound 14]
Outgoing: 0

Incoming: Look up and report measured Ligand-pharmacophore element distance, pharmacophore element CA2 for this entry: C[C@H](NC(=O)[C@H]1Cc2c([nH]c3ccccc23)CN1)C(=O)NCc1ccc(C(=N)N)cc1.Cl.Cl [1097_2]
Outgoing: 0

Incoming: Look up and report measured Ligand-pharmacophore element distance, pharmacophore element CA2 for this entry: C[C@H](NC(=O)[C@@H](CCc1ccccc1)NCc1ccc(C(=O)N2CCOCC2)cc1)C(=O)NCc1ccc(C(=N)N)cc1.Cl.Cl [1153_B]
Outgoing: 0.58

Incoming: Look up and report measured Ligand-pharmacophore element distance, pharmacophore element CA2 for this entry: C[C@H](NC(=O)[C@H]1C[C@H](Cc2ccccc2)CN1)C(=O)NCc1cnc2[nH]cc(Cl)c2c1 [compound 1334]
Outgoing: 0.7

Incoming: Look up and report measured Ligand-pharmacophore element distance, pharmacophore element CA2 for this entry: C[C@H](NC(=O)[C@H]1C[C@@H](c2ccccc2)CCN1)C(=O)NCc1cnc2[nH]cc(Cl)c2c1 [compound 1433]
Outgoing: 0.18

Below are some compounds; for each one, tell me its Ligand-pharmacophore element distance, pharmacophore element CA2.
1. Cc1nc(N)ccc1CNC(=O)C(C)NC(=O)[C@H]1C[C@H](c2cccc(-c3ccccc3)c2)CN1 (stereo in doubt) [compound 1360]
2. C[C@H](NC(=O)[C@H]1C[C@H](c2ccccc2)CN1)C(=O)NCc1ccc2c(N)nccc2c1 [compound 1090]
3. C[C@H](NC(=O)[C@H]1C[C@@H](c2ccccc2)CCN1)C(=O)NCc1cc(Cl)ccc1O.Cl [1078_3]
4. Cc1nc(N)ccc1CNC(=O)[C@H](C)NC(=O)[C@H]1C[C@H](Cc2ccccc2Br)CN1.O=C(O)C(F)(F)F.O=C(O)C(F)(F)F [1372_B]
5. C[C@H](NC(=O)[C@H](N)C1Cc2ccccc2C1)C(=O)NCc1ccc2c(N)nccc2c1.Cl.Cl [1088_A]
6. Cc1nc(N)ccc1CNC(=O)[C@H](C)NC(=O)[C@H]1C[C@H](Cc2cccc(Cl)c2)CN1.Cl.Cl [1328_2]
7. C[C@H](NC(=O)[C@H]1C[C@@H](c2ccccc2)CCN1)C(=O)NCc1cc(Cl)ccc1O.Cl [1078_12]

Outgoing:
2.35
0
0.27
1.41
0
0.43
0.64

Below are some compounds; for each one, tell me its Ligand-pharmacophore element distance, pharmacophore element CA2.
1. C[C@H](NC(=O)[C@@H](CCc1ccccc1)NCc1ccc(N2CCOCC2)cc1)C(=O)NCc1ccc(C(=N)N)cc1 [compound 1149]
2. C[C@H](NC(=O)[C@H]1C[C@@H](c2ccccc2)CN1)C(=O)NCc1ccc(C(=N)N)cc1 [compound 1037]
3. C[C@H](NC(=O)[C@H]1C[C@@H](c2ccccc2)CCN1)C(=O)NCc1cc(Cl)ccc1O.Cl [1078_13]
4. Cc1nc(N)ccc1CNC(=O)[C@H](C)NC(=O)[C@H]1C[C@@H](c2ccccc2)CCN1 [compound 1253, Dihydrochloride]
5. Cc1nc(N)ccc1CNC(=O)[C@H](C)NC(=O)[C@H]1C[C@H](Cc2ccccc2-c2ccccc2)CN1 [compound 1373, Di-trifluoroacetate salt]
6. Cc1nc(N)ccc1CNC(=O)[C@H](C)NC(=O)[C@H]1C[C@@H](c2ccccc2)CCN1CCC(=O)O [compound 1411, Trifluoroacetate salt]

Outgoing:
1. 0
2. 0
3. 0.73
4. 0.23
5. 0.54
6. 0.52
